Tested on: HOP-92
Test: NCI tumour cell line growth inhibition, 48 h
Active and inactive are the calls of the source. Rule as the data show it: active = GI50 up to about 1.1 µM and inactive = higher.
GI50 overview
Parameter: GI50

molecule=CCSC(SCC)c1cc2c(cc1Br)OCO2 parameter=GI50 value_observed="17.8 µM (inactive)"
molecule="C/C(=C\\CC/C=C(\\C)CC/C=C(\\C)CCC1SC1(C)C)CC/C=C(\\C)CCC1OC1(C)C (stereo unspecified)" parameter=GI50 value_observed="> 100 µM (inactive)"
molecule=O=c1c2ccccc2sc2c(CO)ccc(NCCN3CCCCC3)c12 parameter=GI50 value_observed="5.83 µM (inactive)"
molecule=O=c1[nH]c(=O)c2ncn(-c3ccc([N+](=O)[O-])cn3)c2[nH]1 parameter=GI50 value_observed="> 100 µM (inactive)"
molecule=CC(=O)CC(=O)Nc1ccc2ccccc2c1 parameter=GI50 value_observed="> 100 µM (inactive)"
molecule=CC(=O)N(O)c1ccc(-c2nc3ccccc3s2)cc1 parameter=GI50 value_observed="64.4 µM (inactive)"

###

System: CCRF-CEM
Test: NCI tumour cell line growth inhibition, 48 h
Calls of active or inactive are those of the source. Rule as the data show it: active = GI50 up to about 1.1 µM and inactive = higher.
Parameter: GI50

compound="NC1=NCC(CN2CCCC2)O1 (centres undefined)" measurement_target=CCRF-CEM value_observed="> 100 µM (inactive)"
compound=CC(C)CC(=O)OC[n+]1cccc(-c2c(COC(=O)NC(C)C)c(COC(=O)NC(C)C)c3n2CCC3)c1 measurement_target=CCRF-CEM value_observed="34.1 µM (inactive)"
compound="C/C(C=O)=C1\\C(O)C[C@]1(C)C1CC(C)(C)CC1O (some centres undefined)" measurement_target=CCRF-CEM value_observed="26.7 µM (inactive)"
compound="COCCOC(C)C(=O)C(O)S(=O)(=O)O (centres undefined)" measurement_target=CCRF-CEM value_observed="> 100 µM (inactive)"

###

Test system: DU-145
Test: NCI tumour cell line growth inhibition, 48 h
Activity calls are given as the source filed them. Cut-off read from the data, not from the text of the source: active = GI50 up to about 1.1 µM and inactive = higher. Positions of bridges follow the written chain, without caps; N, C: chain ends. Non-standard residues stand in square brackets, D forms with d. Residues, ends and D or L forms follow the SMILES beside them. *: point of attachment. Cbz = O=C(OCc1ccccc1)*; Aib = CC(C)(N)C(=O)O; OBn = c1ccc(CO*)cc1; βAla = NCCC(=O)O
Parameter: GI50

compound=O=C1c2ccccc2-c2c1c(-c1ccc([N+](=O)[O-])cc1)nc1ccc3ccccc3c21 measurement_target=DU-145 value_observed="> 100 µM (inactive)"
compound="CCCNC(C#N)c1ccc(OCCCCCCCCCCOc2ccc(C(C#N)NCCC)cc2)cc1 (centres undefined)" measurement_target=DU-145 value_observed="49 µM (inactive)"
compound=O=C(Cn1c2ccc(Br)cc2c2nc3ccccc3nc21)NNC(=S)NC1CCCCC1 measurement_target=DU-145 value_observed="15.5 µM (inactive)"
compound=Nc1nc(SCC(=O)c2ccc(Br)cc2)c2nc[nH]c2n1 measurement_target=DU-145 value_observed="27.5 µM (inactive)"
compound="CC1(C)Cc2ccccc2C(C)(Cl)C(=O)N1 (centres undefined)" measurement_target=DU-145 value_observed="> 10 µM (inactive)"
compound=N#C/C(=C\c1ccc2[nH]ccc2c1)C(=O)NCCCCNC(=O)/C(C#N)=C/c1ccc2[nH]ccc2c1 measurement_target=DU-145 value_observed="> 10 µM (inactive)"
compound=C/C=C(/C)C(=O)O[C@H]1C[C@@H]2[C@@H](O)c3occ(C)c3C[C@]2(C)[C@@H](C)C1 measurement_target=DU-145 value_observed="14.8 µM (inactive)"
compound=C1CCNCC1.S=C(S)N1CCCCC1 measurement_target=DU-145 value_observed="140 µM (inactive)"
compound=Cn1c(=O)c2sc3c4sc5c(=O)n(C)c6ccccc6c5c4sc3c2c2ccccc21 measurement_target=DU-145 value_observed="> 100 µM (inactive)"
compound=O=S(=O)(Cc1cnc(O)nc1O)Cc1cnc(O)nc1O measurement_target=DU-145 value_observed="> 100 µM (inactive)"
compound="COc1ccc(OC)c(C2CCc3cnc4nc(N)nc(N)c4c3C2)c1 (centres undefined)" measurement_target=DU-145 value_observed="> 100 µM (inactive)"
compound="CCOC1=C(c2ccccc2)N2CCCCC2O1 (centres undefined)" measurement_target=DU-145 value_observed="4.19 µM (inactive)"
compound="CC1(C)NC(=O)C(NC(=O)C(CC(=O)OCc2ccccc2)NC(=O)OCc2ccccc2)CCCCNC(=O)CCNC1=O (centres undefined) (Cbz-D(OBn)K[Aib][βAla]; lactam 2-C; configuration not given here)" measurement_target=DU-145 value_observed="> 100 µM (inactive)"
compound="COC(=O)C1=C(N)C2=C(N)Oc3ccccc3C2CC1=C(C#N)C#N (centres undefined)" measurement_target=DU-145 value_observed="26.5 µM (inactive)"

###

Tested on: SF-539
Test: NCI tumour cell line growth inhibition, 48 h
Active and inactive are the calls of the source. Rule as the data show it: active = GI50 up to about 1.1 µM and inactive = higher.
Labels: yes for active, no for inactive

molecule=ClC1=C(Cl)C(Cl)(Cl)c2c3c(c4c(c21)C(Cl)(Cl)C(Cl)=C4Cl)C(Cl)(Cl)C(Cl)=C3Cl measurement_target=SF-539 assigned_label=no
molecule="C=C(Nc1nc2ccc(C)cc2s1)C(=O)C(CC)C(=O)C(CC)CC1C(=O)NC(=O)NC1=O (configuration not stated)" measurement_target=SF-539 assigned_label=no
molecule="CCOC(=O)C(Cc1ccc(N(CCCl)CCCl)cc1)NC(=O)C(Cc1ccccc1)NC(C)=O (configuration not stated)" measurement_target=SF-539 assigned_label=yes
molecule=O=c1c2ccccc2sc2c(CO)ccc(NCCN3CCCCC3)c12 measurement_target=SF-539 assigned_label=no
molecule="CCOC1=C(c2ccccc2)N2CCCCC2O1 (configuration not stated)" measurement_target=SF-539 assigned_label=no
molecule=CCOC(=O)c1cn2c(n1)sc1cccc(C)c12 measurement_target=SF-539 assigned_label=no
molecule="COC(=O)C1=C(SC)SC2(C(=O)OC)C3C=C(C)C4C(N13)C42C(=O)OC (configuration not stated)" measurement_target=SF-539 assigned_label=no
molecule="CC(C)c1ccc(C2NC(S)=NC3=C2c2ccccc2C3=O)cc1 (configuration not stated)" measurement_target=SF-539 assigned_label=no
molecule="CC(=O)NC1CC(C(C)(C)NC(C)=O)CC=C1C (configuration not stated)" measurement_target=SF-539 assigned_label=no
molecule=O=c1nc2n3c4c(cccc4nc-2c(=O)[nH]1)CCC3 measurement_target=SF-539 assigned_label=no
molecule=Cc1sc(N/N=C2\C(=O)Nc3ccccc32)nc1-c1ccccc1 measurement_target=SF-539 assigned_label=no
molecule="CC1(C)C(=O)/C=C\\C(=O)C(C)(C)C2=CC=C(O2)C(C)(C)C(=O)C(Br)C(Br)C(=O)C(C)(C)C2=CC=C1O2 (configuration not stated)" measurement_target=SF-539 assigned_label=no
molecule="CCOc1ccc(C2=NN(CC)C(=O)C(C3C(=O)N(c4ccccc4)N=C3C)C2)cc1 (configuration not stated)" measurement_target=SF-539 assigned_label=no
molecule="CC1C(NNC(N)=O)Oc2cc3c(cc2C1c1ccccc1O)OCO3 (configuration not stated)" measurement_target=SF-539 assigned_label=no
molecule="COc1ccccc1N1C(Cl)C(=O)C1c1c[nH]c2ccccc12 (configuration not stated)" measurement_target=SF-539 assigned_label=no
molecule="CCCCCCCCCCCCCCCCOCC(COP(=O)([O-])OCC[N+](C)(C)C)OCCCCCCCCCCCCCCCC (configuration not stated)" measurement_target=SF-539 assigned_label=no
molecule="CC(C)(C)c1ccc(O)c(C(O)c2ccccn2)c1 (configuration not stated)" measurement_target=SF-539 assigned_label=no
molecule="O=C(Nc1ccc([N+](=O)[O-])cc1[N+](=O)[O-])C(=O)C(C(=O)c1ccc2ccccc2c1)C1OC(=O)c2ccccc21 (configuration not stated)" measurement_target=SF-539 assigned_label=no
molecule=Cc1ccc2c(c1)C(=O)c1ccc(C)nc1C2=O measurement_target=SF-539 assigned_label=no
molecule="CN1CC[C@]2(C)c3ccc(O)cc3CC3CCCC1C32C (some centres not stated)" measurement_target=SF-539 assigned_label=no
molecule=COc1cc(/C=N/N=C2NCCCN2)ccc1O measurement_target=SF-539 assigned_label=no
molecule=COC(=O)c1ccc(NCc2c(O)ccc(O)c2Br)cc1Cl measurement_target=SF-539 assigned_label=no
molecule="COc1cc(C2c3cc4c(cc3OC(Nc3ccc(C(=O)O)cc3)C2C)OCO4)cc(OC)c1OC (configuration not stated)" measurement_target=SF-539 assigned_label=yes
molecule=Cc1nc(C)c(N2CCN(S(N)(=O)=O)CC2)c(O)n1 measurement_target=SF-539 assigned_label=no
molecule=c1ccc(CNCCN2CCNCC2)nc1 measurement_target=SF-539 assigned_label=no
molecule=O=[N+]([O-])c1cc(Cl)ccc1S(=O)(=O)c1ccccc1 measurement_target=SF-539 assigned_label=no
molecule="Cc1c2oc3c(C)cc(F)c(C(=O)NC4C(=O)NC(C(C)C)C(=O)N5CCCC5C(=O)N(C)CC(=O)N(C)C(C(C)C)C(=O)OC4C)c3nc-2c(C(=O)NC2C(=O)NC(C(C)C)C(=O)N3CCCC3C(=O)N(C)CC(=O)N(C)C(C(C)C)C(=O)OC2C)c(N)c1=O (configuration not stated)" measurement_target=SF-539 assigned_label=yes
molecule=O=C1/C(=C/c2ccc(OC(=O)c3ccccc3)cc2)CCC/C1=C\c1ccc(OC(=O)c2ccccc2)cc1 measurement_target=SF-539 assigned_label=no
molecule=CC(C)NC(=O)OCc1c(COC(=O)NC(C)C)n(C)c2c1ccc1ccccc12 measurement_target=SF-539 assigned_label=no
molecule=CC(C)(CCCCC(C)(C)NC1=NCCO1)NC1=NCCO1 measurement_target=SF-539 assigned_label=no
molecule=CCCCCCC(=O)C/C(CCC(=O)N(Cc1ccccc1)Cc1ccccc1)=N\NC(N)=O measurement_target=SF-539 assigned_label=no
molecule=CC(C)(C)c1ccc2c(c1)C(=O)c1ccccc1C2=O measurement_target=SF-539 assigned_label=no

Reference source: ChEMBL document CHEMBL1201862
